Protein target, amino acids: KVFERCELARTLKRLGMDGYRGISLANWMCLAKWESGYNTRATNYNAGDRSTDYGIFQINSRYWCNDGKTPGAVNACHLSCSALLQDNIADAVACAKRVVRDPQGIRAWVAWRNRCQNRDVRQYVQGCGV
assay-readout: pKd
Field pKd (float): negative decimal logarithm of the concentration in molar.

Request: // pKd lookup, key: "N=C(N)c1ccccc1"
Response: 5.81

Values from paper doi:10.1101/2024.10.17.618876v1
